Measured inhibition, listed per entry.
# target-system: Pantothenate synthetase (Mycobacterium tuberculosis (strain ATCC 25618 / H37Rv)) (UniProt P9WIL5)
# Sequence (P9WIL5 whole entry, looked up): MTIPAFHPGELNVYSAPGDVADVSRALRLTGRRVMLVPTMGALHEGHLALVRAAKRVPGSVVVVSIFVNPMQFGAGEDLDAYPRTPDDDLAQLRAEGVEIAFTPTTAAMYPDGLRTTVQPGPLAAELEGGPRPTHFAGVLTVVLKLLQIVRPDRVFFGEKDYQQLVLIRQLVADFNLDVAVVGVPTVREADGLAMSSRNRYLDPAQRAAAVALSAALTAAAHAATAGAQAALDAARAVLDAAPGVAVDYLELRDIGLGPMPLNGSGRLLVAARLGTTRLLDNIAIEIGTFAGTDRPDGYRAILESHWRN
# test: Coupled enzyme confirmation of inhibitors against recombinant Mtb PanC (AID 375);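 note: 0% = full reaction with vehicle and 100% = no enzyme background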
# study-conditions: coupled enzyme assay; at 10 µM, active compounds read high
quantity-kind: inhibition (%)

| smiles-str | quantity-kind | obs-value |
| --- | --- | --- |
| COc1ccc2nc(NC(=O)CSc3nnc(-c4ccoc4C)n3C)sc2c1 | inhibition | 2 |
| Cc1ccc(-n2c(O)c(C=NCCN3CCOCC3)c(=O)[nH]c2=O)cc1 | inhibition | 3 |
| COCC(=O)N(Cc1nc2ccccc2c(=O)[nH]1)Cc1cccs1 | inhibition | 0 |
| CS(=O)(=O)N1CCC(C(=O)NCCC2=CCCCC2)CC1 | inhibition | 6 |
| COc1ccc(OC)c(NC(=O)CSc2nnc(Cc3cccn3C)n2-c2ccc(F)cc2)c1 | inhibition | 0 |
